Assign pKi to each entry below.
STUDY TARGET: UniProt P22412
ASSAY: Inhibitory activity against beta-lactamase renal dipeptidase
# pKi = -log10(concentration in molar units)

Record CN(C)CCCCCCC/C=C(\NC(=O)C1CC1(C)C)C(=O)O (configuration not stated) . Reported pKi: 6.28

Record C/C=C(\NC(=O)CCCCC#N)C(=O)O . Reported pKi: 4.60

Record C/C=C(\NC(=O)CC1CCCCC1)C(=O)O . Reported pKi: 4.60

Record C/C=C(\NC(=O)[C@@H]1C[C@H]1c1ccccc1)C(=O)O . Reported pKi: 5.30

Record C/C=C(\NC(=O)C=C(C)C)C(=O)O . Reported pKi: 4.55

Record C/C=C(\NC(=O)CCCCCBr)C(=O)O . Reported pKi: 4.72

Record CC1(C)CC1C(=O)N/C(=C\CCCCCC#N)C(=O)O (configuration not stated) . Reported pKi: 7.09

Record C/C=C(\NC(=O)[C@H]1[C@@H]2CCCC[C@@H]21)C(=O)O . Reported pKi: 5.38

Record CC1(C)C[C@@H]1C(=O)N/C(=C\CCCCC[N+](C)(C)C)C(=O)[O-] . Reported pKi: 6.19

Record C/C=C(\NC(=O)[C@@H]1C[C@H]1C)C(=O)O . Reported pKi: 5.77

Record CSCCCCC/C=C(\NC(=O)C1CC1(C)C)C(=O)O (configuration not stated) . Reported pKi: 6.82

Record C/C=C(\NC(=O)C1CCC1C)C(=O)O (configuration not stated) . Reported pKi: 5.33

* * *

STUDY TARGET: Dipeptidase 1 (Sus scrofa) (UniProt P22412)
Sequence (P22412 whole entry): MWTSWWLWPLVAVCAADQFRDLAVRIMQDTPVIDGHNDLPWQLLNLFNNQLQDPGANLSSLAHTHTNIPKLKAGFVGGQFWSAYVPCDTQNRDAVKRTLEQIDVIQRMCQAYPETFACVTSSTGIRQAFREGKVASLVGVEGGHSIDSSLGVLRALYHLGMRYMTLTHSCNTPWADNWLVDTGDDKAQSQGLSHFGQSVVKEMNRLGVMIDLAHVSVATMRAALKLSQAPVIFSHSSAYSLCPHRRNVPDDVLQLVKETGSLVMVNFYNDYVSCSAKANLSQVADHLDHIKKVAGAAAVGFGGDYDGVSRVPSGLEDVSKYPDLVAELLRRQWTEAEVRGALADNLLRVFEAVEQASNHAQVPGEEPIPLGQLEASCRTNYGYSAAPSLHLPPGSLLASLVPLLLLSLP
ASSAY: Inhibitory activity against beta-lactamase renal dipeptidase at a concentration of 100 uM
# label = condition met if inhibition >= 30% else condition not met

Req: Check if inhibition >= 30% (inclusive). Item: O=C(O)/C(=C/Cl)NC(=O)c1ccccc1
Resp: condition met

Req: Check if inhibition >= 30% (inclusive). Item: C/C=C(\NC(=O)CC1CC2CCC1C2)C(=O)O (stereo not drawn)
Resp: condition met

Req: Check if inhibition >= 30% (inclusive). Item: C/C=C(\NC(=O)c1ccc(Cl)cc1)C(=O)O
Resp: condition not met

Req: Check if inhibition >= 30% (inclusive). Item: C/C=C(\NC(=O)/C=C/c1ccccc1)C(=O)O
Resp: condition not met

Req: Check if inhibition >= 30% (inclusive). Item: C/C=C(\NC(=O)CCCCCC)C(=O)O
Resp: condition met

Req: Check if inhibition >= 30% (inclusive). Item: C/C=C(\NC(=O)C(CC)CCCC)C(=O)O (stereo not drawn)
Resp: condition met

Req: Check if inhibition >= 30% (inclusive). Item: C/C=C(\NC(=O)c1ccc2ccccc2c1)C(=O)O
Resp: condition not met

Req: Check if inhibition >= 30% (inclusive). Item: C/C=C(\NC(=O)C(C)C)C(=O)O
Resp: condition met

Req: Check if inhibition >= 30% (inclusive). Item: C/C=C(\NC(=O)CCC1CCCC1)C(=O)O
Resp: condition met

Req: Check if inhibition >= 30% (inclusive). Item: C/C=C(\NC(=O)CC)C(=O)O
Resp: condition met

Req: Check if inhibition >= 30% (inclusive). Item: C/C=C(\NC(=O)C1C(C=C(C)C)C1(C)C)C(=O)O (stereo not drawn)
Resp: condition not met

Req: Check if inhibition >= 30% (inclusive). Item: C/C=C(\NC(=O)CCCCCCCCCCCCCCCCC)C(=O)O
Resp: condition not met
